Quick list: Population Apoptotic (%) per entry.
Test system: Fibroblast
Experiment: Multiplex assay against human fibroblast
Type: toxicity, cell-based
Settings: 12 h, 10 µM, compound concentration 10 uM, replicate 2
property-name: Population Apoptotic (%)

>>> number("N#CCNC(=O)c1ccc(-c2ccnc(Nc3ccc(N4CCOCC4)cc3)n2)cc1")
13
>>> number("CC[C@@H]1C(=O)N(C)c2cnc(Nc3ccc(C(=O)NC4CCN(C)CC4)cc3OC)nc2N1C1CCCC1")
80
>>> number("CCCCN(CC)c1nc(C)nc2c1c(C)cn2-c1c(C)cc(C)cc1C.Cl")
20
>>> number("CCOc1ccn(-c2ccc(F)cc2)c(=O)c1C(=O)Nc1ccc(Oc2ccnc(N)c2Cl)c(F)c1")
80

* * *

Tested on: Fibroblast
Experiment: Multiplex assay against human fibroblast
Assay type: toxicity, cell-based
Conditions: 24 h, 10 µM, compound concentration 10 uM, replicate 1
property-name: Population Tubulin-Different-Phenotype (%)

>>> number("CCOC(=O)CCNc1cc(N2CCc3ccccc3CC2)nc(-c2ccccn2)n1")
7
>>> number("c1ccc(-c2oc3ncnc(NC[C@@H]4CCCO4)c3c2-c2ccccc2)cc1")
82
>>> number("Cl.NC[C@@H]1O[C@H](C23CC4CC(CC(C4)C2)C3)Cc2c1ccc(O)c2O")
50
>>> number("Cc1c(P(=S)(c2ccccc2)c2ccccc2)n2ccccc2[n+]1C/C=C/c1ccccc1.[Br-]")
75
>>> number("CC(C)c1cc(Nc2nc(N3CCC[C@H](N)C3)ncc2C(N)=O)cc(C(C)C)n1")
82

* * *

Tested on: U2OS
Assay: Multiplex assay against U2OS
Assay type: toxicity, cell-based
Settings: human, 12 h, 1 µM, compound concentration 1 uM, replicate 1
Listing: Population Normal (%) of selected compounds
property-name: Population Normal (%)

>>> number("CCOc1ccn(-c2ccc(F)cc2)c(=O)c1C(=O)Nc1ccc(Oc2ccnc(N)c2Cl)c(F)c1")
95
>>> number("N#CCNC(=O)c1ccc(-c2ccnc(Nc3ccc(N4CCOCC4)cc3)n2)cc1")
94
>>> number("CNC(=O)Nc1ccc2c(c1)CC[C@@]21OC(=O)N(CC(=O)N(Cc2ccc(F)cc2)[C@@H](C)C(F)(F)F)C1=O")
95
>>> number("Cc1ccc(S(=O)(=O)NC2c3ccccc3Oc3ccccc32)cc1")
94
>>> number("CCOC(=O)CCNc1cc(N2CCc3ccccc3CC2)nc(-c2ccccn2)n1")
96
>>> number("CC(Cc1ccc(O)c(O)c1)C(C)Cc1ccc(O)c(O)c1 (stereo not drawn) [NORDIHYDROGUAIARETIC ACID]")
91
>>> number("Cc1c(Nc2ccc(S(=O)(=O)N3CCN(C)CC3)cc2F)nc2ccc(-c3cnn(C4CC4)c3)cn2c1=O")
97
>>> number("CCCc1cc(C)[nH]c(=O)c1CNC(=O)c1cc(-c2ccc(N3CCN(C(C)C)CC3)nc2)cc2c1cnn2C(C)C")
84
>>> number("CC[C@@H]1C(=O)N(C)c2cnc(Nc3ccc(C(=O)NC4CCN(C)CC4)cc3OC)nc2N1C1CCCC1")
98
>>> number("Cc1c(Nc2ccc(S(=O)(=O)N3CCN(C)CC3)cc2F)nc2ccc(Nc3cnn(C4CC4)c3)cn2c1=O")
96
>>> number("C[C@@H](Oc1cc(-n2cnc3ccc(CN4CCN(C)CC4)cc32)sc1C(N)=O)c1ccccc1C(F)(F)F")
92
>>> number("CC(C)[C@H](CO)Nc1nc(Nc2cccc(Cl)c2)c2ncn(C(C)C)c2n1")
87
>>> number("NC(=O)c1ccc2nc(-c3ccc(C4(N)CCC4)cc3)c(-c3ccccc3)n2n1")
93
>>> number("CC(/C=C1\\SC(=S)N(CCCC(=O)Nc2ccc(C(=O)O)c(O)c2)C1=O)=C\\c1ccccc1")
96
>>> number("Cc1ccc(NC(=O)Nc2cc(C(F)(F)F)ccc2F)cc1Nc1ccc2c(c1)NC(=O)/C2=C\\c1ccc[nH]1")
97
>>> number("N#Cc1cccc(C(=O)Nc2cc(-c3ccccc3)nn2-c2ccccc2)c1")
90
>>> number("CC[C@H](Nc1ncnc2[nH]cnc12)c1nc2cccc(F)c2c(=O)n1-c1ccccc1")
96
>>> number("CCCCCNC(=N)N/N=C/c1c[nH]c2ccc(OC)cc12.O=C(O)/C=C\\C(=O)O [TEGASEROD MALEATE]")
91

* * *

System: U2OS
Assay: Multiplex assay against U2OS
Format: toxicity, cell-based
Conditions: human, 48 h, 1 µM, compound concentration 1 uM, replicate 2
Label 1 (yes) for high-side Population Hoechst High Intensity Objects (%) (at or above 4%) and 0 (no) for low-side Population Hoechst High Intensity Objects (%) (below it).

>>> qualitative_label("CCCc1cc(C)[nH]c(=O)c1CNC(=O)c1cc(-c2ccc(N3CCN(C(C)C)CC3)nc2)cc2c1cnn2C(C)C")
"1 (yes)"
>>> qualitative_label("CC(Cc1ccc(O)c(O)c1)C(C)Cc1ccc(O)c(O)c1 (configuration not stated) [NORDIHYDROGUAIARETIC ACID]")
"1 (yes)"
>>> qualitative_label("Cc1ccc(S(=O)(=O)NC2c3ccccc3Oc3ccccc32)cc1")
"0 (no)"
>>> qualitative_label("CN1C(=O)[C@@H](NC(=O)c2cc3ccccc3[nH]2)N=C(c2ccccc2)c2ccccc21 [DEVAZEPIDE]")
"0 (no)"
>>> qualitative_label("CCCCCNC(=N)N/N=C/c1c[nH]c2ccc(OC)cc12.O=C(O)/C=C\\C(=O)O [TEGASEROD MALEATE]")
"0 (no)"

* * *

Let's look at some compounds and their measured Population Healthy Nuclei (%).
Test system: U2OS
Assay: Multiplex assay against U2OS
Assay type: toxicity, cell-based
Conditions: human, 12 h, 10 µM, compound concentration 10 uM, replicate 1
property-name: Population Healthy Nuclei (%)

>>> result("C[C@@H](Oc1cc(-n2cnc3ccc(CN4CCN(C)CC4)cc32)sc1C(N)=O)c1ccccc1C(F)(F)F")
"40%"
>>> result("N#Cc1cccc(C(=O)Nc2cc(-c3ccccc3)nn2-c2ccccc2)c1")
"69%"
>>> result("CC(Cc1ccc(O)c(O)c1)C(C)Cc1ccc(O)c(O)c1 (centres undefined) [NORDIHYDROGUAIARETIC ACID]")
"64%"
>>> result("CN1C(=O)[C@@H](NC(=O)c2cc3ccccc3[nH]2)N=C(c2ccccc2)c2ccccc21 [DEVAZEPIDE]")
"72%"

* * *

Tested on: Fibroblast
Experiment: Multiplex assay against human fibroblast
Type: toxicity, cell-based
Settings: 48 h, 10 µM, compound concentration 10 uM, replicate 2
Would you mind labelling by Population Healthy Nuclei (%)? At or over 60% is TRUE, under is FALSE.

>>> qualitative_label("C[C@@H](Oc1cc(-n2cnc3ccc(CN4CCN(C)CC4)cc32)sc1C(N)=O)c1ccccc1C(F)(F)F [GSK-461364]")
"FALSE"
>>> qualitative_label("Cc1c(Nc2ccc(S(=O)(=O)N3CCN(C)CC3)cc2F)nc2ccc(-c3cnn(C4CC4)c3)cn2c1=O")
"FALSE"
>>> qualitative_label("CC(/C=C1\\SC(=S)N(CCCC(=O)Nc2ccc(C(=O)O)c(O)c2)C1=O)=C\\c1ccccc1")
"TRUE"
>>> qualitative_label("CC(C)c1cc(Nc2nc(N3CCC[C@H](N)C3)ncc2C(N)=O)cc(C(C)C)n1")
"FALSE"
>>> qualitative_label("CC(C)C[C@H](NC(=O)[C@H](Cc1ccccc1)NC(=O)CNC(=O)CNC(=O)[C@@H](N)Cc1ccc(O)cc1)C(=O)O [ENKEPHALIN]")
"TRUE"
>>> qualitative_label("CCCCN(CC)c1nc(C)nc2c1c(C)cn2-c1c(C)cc(C)cc1C.Cl")
"FALSE"

* * *

System: HEK-293T
Experiment: Multiplex assay against HEK293T
Type: toxicity, cell-based
Conditions: human, 12 h, 1 µM, compound concentration 1 uM, replicate 1
Please note: 1.0 applies when Population Apoptotic (%) is 20% or greater, and 0.0 applies otherwise.

>>> qualitative_label("CC(Cc1ccc(O)c(O)c1)C(C)Cc1ccc(O)c(O)c1 (centres undefined) [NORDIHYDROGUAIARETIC ACID]")
1.0
>>> qualitative_label("Cc1c(Nc2ccc(S(=O)(=O)N3CCN(C)CC3)cc2F)nc2ccc(Nc3cnn(C4CC4)c3)cn2c1=O")
0.0
>>> qualitative_label("C=CC(=O)Nc1cc(-n2c(=O)ccc3cnc4ccc(-c5ccc(NS(C)(=O)=O)cc5)cc4c32)ccc1C")
1.0
>>> qualitative_label("CN1C(=O)[C@@H](NC(=O)c2cc3ccccc3[nH]2)N=C(c2ccccc2)c2ccccc21 [DEVAZEPIDE]")
1.0
>>> qualitative_label("CC(C)[C@H](CO)Nc1nc(Nc2cccc(Cl)c2)c2ncn(C(C)C)c2n1")
1.0
>>> qualitative_label("CN(c1cc(C(F)(F)F)nc(OCCC(=O)O)n1)c1cccc2c1CCC2")
1.0
>>> qualitative_label("CC(C)C[C@H](NC(=O)[C@H](Cc1ccccc1)NC(=O)CNC(=O)CNC(=O)[C@@H](N)Cc1ccc(O)cc1)C(=O)O")
1.0
>>> qualitative_label("CCOC(=O)CCNc1cc(N2CCc3ccccc3CC2)nc(-c2ccccn2)n1")
0.0
